System: T1, eukaryotically produced human IL-6 (Homo sapiens, UniProt P05231)
T1 construct: purchased Humanzyme HZ-1044; host or cells: Human Embryonic kidney cells
T1 sequence (P05231 30-212): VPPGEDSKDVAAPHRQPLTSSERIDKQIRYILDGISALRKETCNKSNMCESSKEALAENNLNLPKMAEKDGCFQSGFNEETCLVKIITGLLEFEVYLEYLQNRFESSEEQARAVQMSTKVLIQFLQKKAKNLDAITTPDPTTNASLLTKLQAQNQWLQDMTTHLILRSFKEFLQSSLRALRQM
Measurement notes: Surface plasmon resonance (Biacore), eukaryotically produced human IL-6 coated on CM5 chip
Assay type: binding
Experimental parameters: euk; periplasmic fractions, 28A6 chain-shuffled
Measurement name: KA

Name the reported KA value associated with the molecule 55C11f: 28A6 chain-shuffled Fab, periplasmic fraction (antibody, V domains shown) VH: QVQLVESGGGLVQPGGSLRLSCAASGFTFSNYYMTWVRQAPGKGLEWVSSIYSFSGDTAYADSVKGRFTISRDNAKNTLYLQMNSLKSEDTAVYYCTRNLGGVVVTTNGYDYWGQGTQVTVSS VL: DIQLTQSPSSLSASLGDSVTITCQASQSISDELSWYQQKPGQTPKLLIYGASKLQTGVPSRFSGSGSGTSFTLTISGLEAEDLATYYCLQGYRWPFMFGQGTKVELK
3.1e+09 M⁻¹

What about 55E10g1: 28A6 chain-shuffled Fab, periplasmic fraction (antibody, V domains shown) VH: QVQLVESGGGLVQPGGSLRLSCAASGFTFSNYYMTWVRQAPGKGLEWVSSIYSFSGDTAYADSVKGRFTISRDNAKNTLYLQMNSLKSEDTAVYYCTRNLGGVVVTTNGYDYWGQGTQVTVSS VL: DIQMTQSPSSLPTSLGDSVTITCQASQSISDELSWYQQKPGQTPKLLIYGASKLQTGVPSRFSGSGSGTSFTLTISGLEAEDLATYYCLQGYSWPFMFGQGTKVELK ?
2.62e+09 M⁻¹

What about 48H1g2, R4: 28A6 chain-shuffled Fab, periplasmic fraction (antibody, V domains shown) VH: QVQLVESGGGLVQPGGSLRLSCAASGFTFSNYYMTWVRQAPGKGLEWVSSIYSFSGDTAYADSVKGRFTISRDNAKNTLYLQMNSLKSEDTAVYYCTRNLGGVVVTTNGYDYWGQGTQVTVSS VL: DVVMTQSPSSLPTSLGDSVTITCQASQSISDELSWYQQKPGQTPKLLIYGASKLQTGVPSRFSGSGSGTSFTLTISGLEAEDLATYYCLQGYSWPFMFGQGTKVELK ?
1.56e+09 M⁻¹

What about 55A11d: 28A6 chain-shuffled Fab, periplasmic fraction (antibody, V domains shown) VH: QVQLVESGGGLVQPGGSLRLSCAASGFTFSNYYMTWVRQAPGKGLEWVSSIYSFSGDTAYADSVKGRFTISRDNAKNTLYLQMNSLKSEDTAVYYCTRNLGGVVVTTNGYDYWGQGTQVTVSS VL: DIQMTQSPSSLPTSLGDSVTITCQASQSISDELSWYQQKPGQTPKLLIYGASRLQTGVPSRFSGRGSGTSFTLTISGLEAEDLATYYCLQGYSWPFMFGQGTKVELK ?
1.59e+09 M⁻¹

Taken from patent US11827701B2.
